biological target: IL-17A-IL-17RA binding (Homo sapiens, UniProt Q96F46); construct: human IL-17RA-Fc (extracellular domain 1-322 AA fused with Fc region of human IgG1 at the C-terminus); purchased Sino Biological Inc; assay: IL-17A-IL-17RA binding assay (ELISA); details: in vitro inhibition assay; read-out: IC50, IL-17A-IL-17RA binding inhibition assay
Sequence (Q96F46 33-322): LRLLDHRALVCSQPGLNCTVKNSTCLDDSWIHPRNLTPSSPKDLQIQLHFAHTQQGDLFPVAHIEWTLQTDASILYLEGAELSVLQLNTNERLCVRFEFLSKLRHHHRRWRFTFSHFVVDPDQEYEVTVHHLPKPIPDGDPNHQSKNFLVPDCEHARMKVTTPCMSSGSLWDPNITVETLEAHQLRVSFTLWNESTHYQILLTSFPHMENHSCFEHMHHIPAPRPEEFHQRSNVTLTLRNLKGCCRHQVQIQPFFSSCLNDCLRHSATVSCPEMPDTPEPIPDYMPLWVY
EXPERIMENTAL_READOUT: IC50 (µM)
# unit: µM | format: bare number

In: Enter reported IC50 observed with IL-17A-IL-17RA binding (Homo sapiens, UniProt Q96F46) for Oc1cc(O)c2c(c1)O[C@@H](c1ccc(O)c(O)c1)[C@H](O)C2 [A0]
Out: 0.956

In: What would you report for OC[C@H]1O[C@@H](Oc2cc3c(O)cc(O)cc3[o+]c2-c2ccc(O)c(O)c2)[C@H](O)[C@@H](O)[C@@H]1O [cyanidin-3-O-glucoside, reference compound] ?
Out: 0.0964

In: What would you report for Oc1cc(O)c2ccc(-c3ccc(O)c(O)c3)[o+]c2c1 [luteolinidin, reference compound] ?
Out: 0.198

# credit: patent US10385034B2
